// cross-study collection: IC50 for Tyrosine-protein kinase JAK3 (Homo sapiens)

Param item: `CCC(=O)c1cnc(Nc2cnc(O[C@H]3CN(C)C[C@H]3F)cn2)cc1Nc1cccc(-c2ncn(C)n2)c1OC` ; param system: Tyrosine-protein kinase JAK3 (Homo sapiens); output IC50: ≥ 500 nM

Param item: `CN(c1ccccc1CNc1nc(-c2cc(F)c(O)cc2CC(F)(F)F)cc2[nH]nc(C(N)=O)c12)S(=O)(=O)c1ccc(N2CCOCC2)nc1` ; param system: Tyrosine-protein kinase JAK3 (Homo sapiens); output IC50: 283 nM

Param item: `O=C(c1ccccc1F)c1c[nH]c2nccc(-c3cccnc3)c12` ; param system: Tyrosine-protein kinase JAK3 (Homo sapiens); output IC50: ≤ 10000 nM

Param item: `C=CC(=O)N1CC[C@@H](Nc2nc(Nc3cnn(C)c3)nc3ccoc23)C1` ; param system: Tyrosine-protein kinase JAK3 (Homo sapiens); output IC50: 10 to 100 nM

Param item: `Cc1cc(NC(=O)c2cccc(Oc3ccnc4[nH]nc(N[C@H]5CCN(C(=O)C6CC6)C5)c34)c2)ccc1C(C)C` ; param system: Tyrosine-protein kinase JAK3 (Homo sapiens); output IC50: 1000 to 10000 nM

Param item: `Cc1csc(NC(=O)c2ccc(Oc3ccnc4[nH]nc(N[C@@H]5CCCN(C(=O)/C=C/CN(C)C6CC6)C5)c34)cc2)n1` ; param system: Tyrosine-protein kinase JAK3 (Homo sapiens); output IC50: 1000 to 10000 nM

Param item: `C=CC(=O)N1CCC[C@@H](n2nc(-c3cccc(Oc4ccccc4)c3)c3cncnc32)C1` ; param system: Tyrosine-protein kinase JAK3 (Homo sapiens); output IC50: > 500 nM

Param item: CCC(=O)c1cnc(Nc2ccc(C(C)NCC(F)F)cn2)cc1Nc1cccc(-c2ncn(C)n2)c1OC (stereo not drawn) ; param system: Tyrosine-protein kinase JAK3 (Homo sapiens); output IC50: 50 to 500 nM

Param item: `CC[C@H](Cn1ccc2cnc(Nc3cnn(CC(=O)O[C@@H]4C[C@@H](C(=O)OC)N(C)C4)c3)nc21)C(C)C` ; param system: Tyrosine-protein kinase JAK3 (Homo sapiens); output IC50: < 100 nM

Param item: `C=CC(=O)N1CC[C@@H](Nc2nc(Nc3cc(C)ns3)nc3ccoc23)C1` ; param system: Tyrosine-protein kinase JAK3 (Homo sapiens); output IC50: ≤ 10 nM

Param item: `CCOC(=O)Cn1cc(Nc2ncc3ccn(CC4CC4)c3n2)cn1` ; param system: Tyrosine-protein kinase JAK3 (Homo sapiens); output IC50: < 100 nM

Param item: `CCC(=O)c1cnc(Nc2ccc(CN(C)C)c(C(F)(F)F)n2)cc1Nc1cccc(-c2ncn(C)n2)c1OC` ; param system: Tyrosine-protein kinase JAK3 (Homo sapiens); output IC50: ≥ 500 nM

Param item: `CC1(C)[C@H](Nc2c(C(N)=O)cnn3cc(-c4cccnc4)cc23)CC[C@]1(C)N` ; param system: Tyrosine-protein kinase JAK3 (Homo sapiens); output IC50: 0.5 nM

Param item: `C=CC(=O)N1CCC[C@@H](Nc2n[nH]c3nccc(Oc4cccc(C(=O)Nc5ncc(C)s5)c4)c23)C1` ; param system: Tyrosine-protein kinase JAK3 (Homo sapiens); output IC50: < 100 nM

Param item: O=C(NCCC(F)(F)F)C1=NOC2CN(c3ncnc4[nH]ccc34)CC12 (stereo not drawn) ; param system: Tyrosine-protein kinase JAK3 (Homo sapiens); output IC50: 100 to 500 nM
